experimentalProtocol: Circular dichroism, secondary structure (Bestsel)
Type: physicochemical
details: CD in 20 mM SDS
Where a SMILES comes first, the peptide text is derived from it. [ ]: non-standard residue; d: D form. d2Nal = N[C@H](Cc1ccc2ccccc2c1)C(=O)O
readoutKind: Parallel (%)
// return numeric value only (unit: %, not printed)

compound CC[C@H](C)[C@H](NC(=O)CNC(=O)[C@H](CO)NC(=O)[C@H](CC(C)C)NC(=O)[C@@H](N)Cc1ccccc1)C(=O)N[C@H](C(=O)NCC(=O)N[C@@H](CCSC)C(=O)N[C@@H](CC(C)C)C(=O)N[C@H](Cc1ccc2ccccc2c1)C(=O)N[C@@H](CCCCN)C(=O)N[C@@H](CC(C)C)C(=O)N[C@@H](Cc1ccccc1)C(N)=O)C(C)C [[G10n]-SHa (5)] (H-FLSGIVGML[d2Nal]KLF-NH2) , Parallel observed: 1.10

compound CC[C@H](C)[C@H](NC(=O)CNC(=O)[C@H](CO)NC(=O)[C@H](CC(C)C)NC(=O)[C@@H](N)Cc1ccccc1)C(=O)N[C@H](C(=O)NCC(=O)N[C@@H](CCSC)C(=O)N[C@@H](CC(C)C)C(=O)N[C@@H](CCCCN)C(=O)N[C@@H](CCCCN)C(=O)N[C@@H](CC(C)C)C(=O)N[C@@H](Cc1ccccc1)C(N)=O)C(C)C [[G10K]-SHa (4)] (H-FLSGIVGMLKKLF-NH2) , Parallel observed: 0.00

compound CC[C@H](C)[C@H](NC(=O)CNC(=O)[C@H](CO)NC(=O)[C@H](CC(C)C)NC(=O)[C@@H](N)Cc1ccccc1)C(=O)N[C@H](C(=O)NCC(=O)N[C@@H](CCSC)C(=O)N[C@@H](CC(C)C)C(=O)N[C@H](Cc1ccc(O)cc1)C(=O)N[C@@H](CCCCN)C(=O)N[C@@H](CC(C)C)C(=O)N[C@@H](Cc1ccccc1)C(N)=O)C(C)C [[G10y]-SHa (6)] (H-FLSGIVGML[dY]KLF-NH2) , Parallel observed: 31.10

compound CC[C@H](C)[C@H](NC(=O)CNC(=O)[C@H](CO)NC(=O)[C@H](CC(C)C)NC(=O)[C@@H](N)Cc1ccccc1)C(=O)N[C@H](C(=O)NCC(=O)N[C@@H](CCSC)C(=O)N[C@@H](CC(C)C)C(=O)N[C@H](C)C(=O)N[C@@H](CCCCN)C(=O)N[C@@H](CC(C)C)C(=O)N[C@@H](Cc1ccccc1)C(N)=O)C(C)C [[G10a]-SHa (2)] (H-FLSGIVGML[dA]KLF-NH2) , Parallel observed: 0.00

compound CC[C@H](C)[C@H](NC(=O)CNC(=O)[C@H](CO)NC(=O)[C@H](CC(C)C)NC(=O)[C@@H](N)Cc1ccccc1)C(=O)N[C@H](C(=O)NCC(=O)N[C@@H](CCSC)C(=O)N[C@@H](CC(C)C)C(=O)NCC(=O)N[C@@H](CCCCN)C(=O)N[C@@H](CC(C)C)C(=O)N[C@@H](Cc1ccccc1)C(N)=O)C(C)C [Temporin-SHa (1), reference compound] (H-FLSGIVGMLGKLF-NH2) , Parallel observed: 0.00

compound CC[C@H](C)[C@H](NC(=O)CNC(=O)[C@H](CO)NC(=O)[C@H](CC(C)C)NC(=O)[C@@H](N)Cc1ccccc1)C(=O)N[C@H](C(=O)NCC(=O)N[C@@H](CCSC)C(=O)N[C@@H](CC(C)C)C(=O)N[C@H](Cc1ccccc1)C(=O)N[C@@H](CCCCN)C(=O)N[C@@H](CC(C)C)C(=O)N[C@@H](Cc1ccccc1)C(N)=O)C(C)C [[G10f]-SHa (3)] (H-FLSGIVGML[dF]KLF-NH2) , Parallel observed: 0.00

Values were extracted from paper PMC11350846.
